Test system: MAP3K3;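 also: KINOMEscan kinase panel screen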
Condition Details: concentration: 1 μM,replicates: in singlicate; n = 1
Assay Readout: %Inh (%)
Answer with a number only, understood to be in %.

Cn1ccc2ncnc(Oc3ccc(NC(=O)Nc4cc(C(C)(C)C)on4)c(Cl)c3)c21: 17
COc1cc2ncn(-c3cc(OCC4CCCCC4)c(C(N)=O)s3)c2cc1OC [GSK204559]: 0
COc1cccc(CNC(=O)NC2CCN(c3ccnc(Nc4cc(OC)c(OC)c(OC)c4)n3)C2)c1 (centres unmarked) [GSK1379765]: 0
Cn1ccc2ncnc(Oc3ccc(NC(=O)Nc4cccc(C(F)(F)F)c4)c(Cl)c3)c21: 0
NC(=O)c1ccc(-c2cc3ncnc(SCC(=O)O)c3s2)cc1: 0
CC(C)c1nc(-c2cccc(NS(=O)(=O)c3ccccc3)c2)c(-c2ccnc(Nc3ccc4c(c3)CN(C)CC4)n2)s1 [GSK1649598]: 84
C[C@@H]1CNc2c(sc3ccc4nc(-c5ccc(O)cc5)ccc4c23)C(=O)N1: 11

Continue with the next compound.
(Q) Please look at this compound and report its %Inh: "OCCn1cc(-c2cnc3nnn(Cc4ccc5ncccc5c4)c3n2)cn1"
(A) 0

Taken from paper PMC5540273.
